# Run Parameters: 313.15 K; 101.33 kPa; Liquid; Hot wire method
± gives the expanded uncertainty stated by the source.
Outcome Measure: thermal conductivity

> print(dat)
            smi       outcome.measure               result
1          CC#N  thermal conductivity  0.183 ± 0.004 W/m/K
2  CN(C)CCN(C)C  thermal conductivity  0.144 ± 0.003 W/m/K
3         CCSCC  thermal conductivity  0.137 ± 0.003 W/m/K
4     C1CCCNCC1  thermal conductivity  0.131 ± 0.003 W/m/K

====

# Run Parameters: 333.15 K; 101.33 kPa; Liquid; Hot wire method
± gives the expanded uncertainty stated by the source.
Outcome Measure: thermal conductivity

> print(dat)
                        molecule       outcome.measure               result
1                   CN(C)CCN(C)C  thermal conductivity  0.135 ± 0.003 W/m/K
2                          CCSCC  thermal conductivity   0.13 ± 0.003 W/m/K
3  C1CCSC1 [tetrahydrothiophene]  thermal conductivity   0.11 ± 0.002 W/m/K
4                      C1CCCNCC1  thermal conductivity  0.126 ± 0.003 W/m/K

====

# key: entry, value: thermal conductivity
# Run Parameters: 293.15 K; 101.33 kPa; Liquid; Hot wire method
Outcome Measure: thermal conductivity (W/m/K)

> print(dat)
                                   compound  quantitative.result
1               C1CCCNCC1 [azacycloheptane]                0.137
2  CN(C)CCN(C)C [N,N,N',N'-tetramethyl-1,2-diaminoethane]                 0.15
3                     CCSCC [3-thiapentane]                 0.14
4                       CC#N [acetonitrile]                0.195

====

# Run Parameters: 273.15 K; 101.33 kPa; Liquid; Hot wire method
± gives the expanded uncertainty stated by the source.
# key: entry, value: thermal conductivity
Outcome Measure: thermal conductivity

> print(dat)
                        molecule       outcome.measure               result
1                      C1CCCNCC1  thermal conductivity  0.141 ± 0.003 W/m/K
2  C1CCSC1 [tetrahydrothiophene]  thermal conductivity   0.12 ± 0.003 W/m/K
3                           CC#N  thermal conductivity  0.207 ± 0.004 W/m/K
4                          CCSCC  thermal conductivity  0.145 ± 0.003 W/m/K
5                   CN(C)CCN(C)C  thermal conductivity  0.154 ± 0.003 W/m/K
